Item-by-item account of CPE inhibition
test: inhibition of RSV-induced cytopathic effect – HEp-2 cells, primary 10 µM value included (AID 2391); details: at 10 µM, stronger effect = higher value
Screen size: about 310,000 compounds; about 410 (0.13%) were called active. Inconclusive results (about 2%) are left out. A selection follows. Potency and affinity values are given separately.

Here are 3 compounds together with their reported answers.
1) O=C1CCCN1c1ccc(C(=O)N(Cc2nnc(-c3ccc(Cl)cc3)o2)C2CC2)cc1: 1.99% (inactive)
2) O=C(NCCOc1ccccc1Cl)C(=O)NCCOc1ccccc1Cl: 3.63% (inactive)
3) CCC(=O)Nc1sc2c(c1C(=O)OC)CCN(Cc1ccccc1)C2: -0.39% (inactive)

Query block: Give the reported CPE inhibition for this compound. CCNS(=O)(=O)c1ccc(CCC(=O)NCc2ccccn2)cc1
Result block: -0.26% (inactive)

Query block: Return CPE inhibition (reported value) for this compound: O=C(CNC(=O)c1ccccc1F)NCCOc1ccccc1Cl
Result block: 0.24% (inactive)

Query block: Name the recorded CPE inhibition of the item COc1ccc(-c2cc(-c3ccc(C)cc3)nc(SCc3nnc(-c4ccccc4)o3)c2C#N)cc1OC in your answer.
Result block: 2.51% (inactive)
